Target: T1, CathepsinG, from human neutrophils (human, UniProt P08311 21-244)
T1 sequence (looked up): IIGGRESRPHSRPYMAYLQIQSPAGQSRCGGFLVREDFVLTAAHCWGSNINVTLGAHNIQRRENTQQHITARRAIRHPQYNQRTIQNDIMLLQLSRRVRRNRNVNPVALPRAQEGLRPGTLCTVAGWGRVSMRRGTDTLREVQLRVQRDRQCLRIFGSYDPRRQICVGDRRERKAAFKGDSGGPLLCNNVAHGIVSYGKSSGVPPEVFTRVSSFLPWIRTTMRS
Assay: cell-based or functional assay
Bridges are numbered along the chain shown (N, C = ends). [ ]: non-standard residue; d: D form. Chg = N[C@H](C(=O)O)C1CCCCC1
Entries and their IC50 values follow.
Field format: number, assumed nmol, no unit text.

Sample answers from the record:
FCTKSDPPICS (HELM PEPTIDE1{F.C.T.K.S.D.P.P.I.C.S.[dA].P}$PEPTIDE1,PEPTIDE1,2:R3-10:R3|PEPTIDE1,PEPTIDE1,1:R1-13:R2$$$V2.0; SMILES CC[C@H](C)[C@@H]1NC(=O)[C@@H]2CCCN2C(=O)[C@@H]2CCCN2C(=O)[C@H](CC(=O)O)NC(=O)[C@H](CO)NC(=O)[C@H](CCCCN)NC(=O)[C@H]([C@@H](C)O)NC(=O)[C@@H]2CSSC[C@H](NC1=O)C(=O)N[C@@H](CO)C(=O)N[C@H](C)C(=O)N1CCC[C@H]1C(=O)N[C@@H](Cc1ccccc1)C(=O)N2) [Example 49] : 82
XCTKSDPPICS (HELM PEPTIDE1{[Nle].C.T.K.S.D.P.P.I.C.S.[dP].P}$PEPTIDE1,PEPTIDE1,2:R3-10:R3|PEPTIDE1,PEPTIDE1,1:R1-13:R2$$$V2.0; SMILES CCCC[C@@H]1NC(=O)[C@@H]2CCCN2C(=O)[C@H]2CCCN2C(=O)[C@H](CO)NC(=O)[C@@H]2CSSC[C@H](NC1=O)C(=O)N[C@@H]([C@@H](C)O)C(=O)N[C@@H](CCCCN)C(=O)N[C@@H](CO)C(=O)N[C@@H](CC(=O)O)C(=O)N1CCC[C@H]1C(=O)N1CCC[C@H]1C(=O)N[C@@H]([C@@H](C)CC)C(=O)N2) [Example 10] : 75
FCTKXDPPICS (HELM PEPTIDE1{F.C.T.K.[NC[C@H](N[*:1])C(=O)[*:2]].D.P.P.I.C.S.[dP].P}$PEPTIDE1,PEPTIDE1,2:R3-10:R3|PEPTIDE1,PEPTIDE1,1:R1-13:R2$$$V2.0; SMILES CC[C@H](C)[C@@H]1NC(=O)[C@@H]2CCCN2C(=O)[C@@H]2CCCN2C(=O)[C@H](CC(=O)O)NC(=O)[C@H](CN)NC(=O)[C@H](CCCCN)NC(=O)[C@H]([C@@H](C)O)NC(=O)[C@@H]2CSSC[C@H](NC1=O)C(=O)N[C@@H](CO)C(=O)N1CCC[C@@H]1C(=O)N1CCC[C@H]1C(=O)N[C@@H](Cc1ccccc1)C(=O)N2) [Example 25] : 102
RXTKSDPPIXF (HELM PEPTIDE1{R.[Nle].T.K.S.D.P.P.I.[Nle].F.[dP].P}$PEPTIDE1,PEPTIDE1,1:R1-13:R2$$$V2.0; SMILES CCCC[C@@H]1NC(=O)[C@H](CCCNC(=N)N)NC(=O)[C@@H]2CCCN2C(=O)[C@H]2CCCN2C(=O)[C@H](Cc2ccccc2)NC(=O)[C@H](CCCC)NC(=O)[C@H]([C@@H](C)CC)NC(=O)[C@@H]2CCCN2C(=O)[C@@H]2CCCN2C(=O)[C@H](CC(=O)O)NC(=O)[C@H](CO)NC(=O)[C@H](CCCCN)NC(=O)[C@H]([C@@H](C)O)NC1=O) [Example 8] : 126
FCTKSDPPXCS (HELM PEPTIDE1{F.C.T.K.S.D.P.P.[Cha].C.S.[dP].P}$PEPTIDE1,PEPTIDE1,2:R3-10:R3|PEPTIDE1,PEPTIDE1,1:R1-13:R2$$$V2.0; SMILES C[C@@H](O)[C@@H]1NC(=O)[C@@H]2CSSC[C@H](NC(=O)[C@H](CC3CCCCC3)NC(=O)[C@@H]3CCCN3C(=O)[C@@H]3CCCN3C(=O)[C@H](CC(=O)O)NC(=O)[C@H](CO)NC(=O)[C@H](CCCCN)NC1=O)C(=O)N[C@@H](CO)C(=O)N1CCC[C@@H]1C(=O)N1CCC[C@H]1C(=O)N[C@@H](Cc1ccccc1)C(=O)N2) [Example 54] : 66

Need IC50, item ICTKSDPPYCR (HELM PEPTIDE1{I.C.T.K.S.D.P.P.Y.C.R.[dP].P}$PEPTIDE1,PEPTIDE1,2:R3-10:R3|PEPTIDE1,PEPTIDE1,1:R1-13:R2$$$V2.0; SMILES CC[C@H](C)[C@@H]1NC(=O)[C@@H]2CCCN2C(=O)[C@H]2CCCN2C(=O)[C@H](CCCNC(=N)N)NC(=O)[C@@H]2CSSC[C@H](NC1=O)C(=O)N[C@@H]([C@@H](C)O)C(=O)N[C@@H](CCCCN)C(=O)N[C@@H](CO)C(=O)N[C@@H](CC(=O)O)C(=O)N1CCC[C@H]1C(=O)N1CCC[C@H]1C(=O)N[C@@H](Cc1ccc(O)cc1)C(=O)N2) [Example 56] 47

Also FCTKSDPPICN (HELM PEPTIDE1{F.C.T.K.S.D.P.P.I.C.N.[dP].P}$PEPTIDE1,PEPTIDE1,2:R3-10:R3|PEPTIDE1,PEPTIDE1,1:R1-13:R2$$$V2.0; SMILES CC[C@H](C)[C@@H]1NC(=O)[C@@H]2CCCN2C(=O)[C@@H]2CCCN2C(=O)[C@H](CC(=O)O)NC(=O)[C@H](CO)NC(=O)[C@H](CCCCN)NC(=O)[C@H]([C@@H](C)O)NC(=O)[C@@H]2CSSC[C@H](NC1=O)C(=O)N[C@@H](CC(N)=O)C(=O)N1CCC[C@@H]1C(=O)N1CCC[C@H]1C(=O)N[C@@H](Cc1ccccc1)C(=O)N2) [Example 3] , if possible. 51

Also cyclo([Chg]CTK[AlloThr]DPPYCY[dP]P) (disulfide 2-10) [Example 67] , if possible. 48
